Quick list: LD50 per entry.
Assay text: toxicity, LD50 i.p. after administration of a single dose to mice
Assay conditions: mouse, in vivo, ip, read-out: T: toxicity, LD50
From the text: For some of these compounds, the Table also contains toxicity data ("T", LD50, mg/kg i.p. after administration of a single dose to mice).
Structures can show the parent of a compound that is named as a salt.

Example entries and their recorded answers appear below.
Q) Please report the measured LD50 for O=C(OCCN1CCN(CCOC(=O)C(c2ccccc2)c2ccccc2)CC1)C(c1ccccc1)c1ccccc1
A) 200 to 400 mg/kg

Q) Please report the measured LD50 for CCC(C(=O)OCCN1CCN(CCOC(=O)C(CC)c2ccccc2C)CC1)c1ccccc1C.Cl.Cl (stereo not drawn)
A) 200 to 400 mg/kg

Q) Please report the measured LD50 for CCC(C(=O)OCCN1CCN(CCC(=O)Nc2c(C)cccc2C)CC1)c1ccccc1 (stereo not drawn) [Compound 1774, dihydrochloride]
A) ~200 mg/kg

Others:
Q) Please report the measured LD50 for CCC(C(=O)OCCN1CCN(CCOC(=O)C(CC)c2ccc(OC)c(OC)c2)CC1)c1ccc(OC)c(OC)c1.Cl.Cl (stereo not drawn)
A) ~200 mg/kg

Q) Please report the measured LD50 for CCC(C(=O)OCCN1CCN(CCOC(=O)C(CC)c2ccccc2)CC1)c1ccccc1.Cl.Cl (stereo not drawn)
A) 100 to 200 mg/kg

Q) Please report the measured LD50 for CCCC(C(=O)OCCN1CCN(CCOC(=O)C(CCC)c2ccccc2)CC1)c1ccccc1 (stereo not drawn)
A) 200 to 400 mg/kg
